experiment: Solid state (thermolytic) stability of TBR-760 salt forms, open container, UPLC peak purity and appearance; type: physicochemical; conditions: control, stored at -20° C.
Counter-ions that a name gives are not always drawn.
parameter: Appearance, Control

1) CCCN1C[C@H](CSCC(=O)NCCCC[C@@H](NC(=O)CSC[C@@H]2C[C@@H]3c4cccc5[nH]cc(c45)C[C@H]3N(CCC)C2)C(=O)N[C@H]2CSSC[C@@H](C(=O)N[C@H](C(N)=O)[C@@H](C)O)NC(=O)[C@H](CC)NC(=O)[C@H](CCCCN)NC(=O)[C@@H](Cc3c[nH]c4ccccc34)NC(=O)[C@H](Cc3ccc(O)cc3)NC2=O)C[C@@H]2c3cccc4[nH]cc(c34)C[C@H]21 [TBR-760 tosylate]    White

* * *

test: Solid state (thermolytic) stability of TBR-760 salt forms, open container, UPLC peak purity and appearance; format: physicochemical; conditions: 60° C., open dish, 3 d
Structures can show the parent of a compound that is named as a salt.
parameter: Appearance, T = 3 d

1) CCCN1C[C@H](CSCC(=O)NCCCC[C@@H](NC(=O)CSC[C@@H]2C[C@@H]3c4cccc5[nH]cc(c45)C[C@H]3N(CCC)C2)C(=O)N[C@H]2CSSC[C@@H](C(=O)N[C@H](C(N)=O)[C@@H](C)O)NC(=O)[C@H](CC)NC(=O)[C@H](CCCCN)NC(=O)[C@@H](Cc3c[nH]c4ccccc34)NC(=O)[C@H](Cc3ccc(O)cc3)NC2=O)C[C@@H]2c3cccc4[nH]cc(c34)C[C@H]21 [TBR-760 tosylate]    White
2) CCCN1C[C@H](CSCC(=O)NCCCC[C@@H](NC(=O)CSC[C@@H]2C[C@@H]3c4cccc5[nH]cc(c45)C[C@H]3N(CCC)C2)C(=O)N[C@H]2CSSC[C@@H](C(=O)N[C@H](C(N)=O)[C@@H](C)O)NC(=O)[C@H](CC)NC(=O)[C@H](CCCCN)NC(=O)[C@@H](Cc3c[nH]c4ccccc34)NC(=O)[C@H](Cc3ccc(O)cc3)NC2=O)C[C@@H]2c3cccc4[nH]cc(c34)C[C@H]21 [TBR-760 mesylate]    White

* * *

test: Photostability of TBR-760 salt forms (ICH Q1B, visible and UV light), appearance and UPLC purity; type: physicochemical; conditions: control in sealed amber vial at -20° C.
Structures can show the parent of a compound that is named as a salt.
parameter: Appearance, Control

1) CCCN1C[C@H](CSCC(=O)NCCCC[C@@H](NC(=O)CSC[C@@H]2C[C@@H]3c4cccc5[nH]cc(c45)C[C@H]3N(CCC)C2)C(=O)N[C@H]2CSSC[C@@H](C(=O)N[C@H](C(N)=O)[C@@H](C)O)NC(=O)[C@H](CC)NC(=O)[C@H](CCCCN)NC(=O)[C@@H](Cc3c[nH]c4ccccc34)NC(=O)[C@H](Cc3ccc(O)cc3)NC2=O)C[C@@H]2c3cccc4[nH]cc(c34)C[C@H]21 [TBR-760 chloride, hydrochloride salt]    white

* * *

experiment: Solid state (thermolytic) stability of TBR-760 salt forms, open container, UPLC peak purity and appearance; format: physicochemical; details: 60° C., open dish, 4 wk
Counter-ions that a name gives are not always drawn.
parameter: Appearance, T = 4 wk

1) CCCN1C[C@H](CSCC(=O)NCCCC[C@@H](NC(=O)CSC[C@@H]2C[C@@H]3c4cccc5[nH]cc(c45)C[C@H]3N(CCC)C2)C(=O)N[C@H]2CSSC[C@@H](C(=O)N[C@H](C(N)=O)[C@@H](C)O)NC(=O)[C@H](CC)NC(=O)[C@H](CCCCN)NC(=O)[C@@H](Cc3c[nH]c4ccccc34)NC(=O)[C@H](Cc3ccc(O)cc3)NC2=O)C[C@@H]2c3cccc4[nH]cc(c34)C[C@H]21 [TBR-760 mesylate]    White
2) CCCN1C[C@H](CSCC(=O)NCCCC[C@@H](NC(=O)CSC[C@@H]2C[C@@H]3c4cccc5[nH]cc(c45)C[C@H]3N(CCC)C2)C(=O)N[C@H]2CSSC[C@@H](C(=O)N[C@H](C(N)=O)[C@@H](C)O)NC(=O)[C@H](CC)NC(=O)[C@H](CCCCN)NC(=O)[C@@H](Cc3c[nH]c4ccccc34)NC(=O)[C@H](Cc3ccc(O)cc3)NC2=O)C[C@@H]2c3cccc4[nH]cc(c34)C[C@H]21 [TBR-760 tosylate]    White
3) CCCN1C[C@H](CSCC(=O)NCCCC[C@@H](NC(=O)CSC[C@@H]2C[C@@H]3c4cccc5[nH]cc(c45)C[C@H]3N(CCC)C2)C(=O)N[C@H]2CSSC[C@@H](C(=O)N[C@H](C(N)=O)[C@@H](C)O)NC(=O)[C@H](CC)NC(=O)[C@H](CCCCN)NC(=O)[C@@H](Cc3c[nH]c4ccccc34)NC(=O)[C@H](Cc3ccc(O)cc3)NC2=O)C[C@@H]2c3cccc4[nH]cc(c34)C[C@H]21 [TBR-760 sulfate]    White

* * *

test: Solid state (thermolytic) stability of TBR-760 salt forms, open container, UPLC peak purity and appearance; type: physicochemical; settings: UPLC peak purity, 60° C., open dish, 2 wk
Counter-ions that a name gives are not always drawn.
parameter: Purity, T = 2 wk

1. CCCN1C[C@H](CSCC(=O)NCCCC[C@@H](NC(=O)CSC[C@@H]2C[C@@H]3c4cccc5[nH]cc(c45)C[C@H]3N(CCC)C2)C(=O)N[C@H]2CSSC[C@@H](C(=O)N[C@H](C(N)=O)[C@@H](C)O)NC(=O)[C@H](CC)NC(=O)[C@H](CCCCN)NC(=O)[C@@H](Cc3c[nH]c4ccccc34)NC(=O)[C@H](Cc3ccc(O)cc3)NC2=O)C[C@@H]2c3cccc4[nH]cc(c34)C[C@H]21 [TBR-760 sulfate]    93.7

What value of Purity, T = 2 wk has been reported for the following compound? CCCN1C[C@H](CSCC(=O)NCCCC[C@@H](NC(=O)CSC[C@@H]2C[C@@H]3c4cccc5[nH]cc(c45)C[C@H]3N(CCC)C2)C(=O)N[C@H]2CSSC[C@@H](C(=O)N[C@H](C(N)=O)[C@@H](C)O)NC(=O)[C@H](CC)NC(=O)[C@H](CCCCN)NC(=O)[C@@H](Cc3c[nH]c4ccccc34)NC(=O)[C@H](Cc3ccc(O)cc3)NC2=O)C[C@@H]2c3cccc4[nH]cc(c34)C[C@H]21 [TBR-760 tosylate]
96.86

Form field: reported Purity, T = 2 wk of CCCN1C[C@H](CSCC(=O)NCCCC[C@@H](NC(=O)CSC[C@@H]2C[C@@H]3c4cccc5[nH]cc(c45)C[C@H]3N(CCC)C2)C(=O)N[C@H]2CSSC[C@@H](C(=O)N[C@H](C(N)=O)[C@@H](C)O)NC(=O)[C@H](CC)NC(=O)[C@H](CCCCN)NC(=O)[C@@H](Cc3c[nH]c4ccccc34)NC(=O)[C@H](Cc3ccc(O)cc3)NC2=O)C[C@@H]2c3cccc4[nH]cc(c34)C[C@H]21 [TBR-760 mesylate]
97.56

Given the entry CCCN1C[C@H](CSCC(=O)NCCCC[C@@H](NC(=O)CSC[C@@H]2C[C@@H]3c4cccc5[nH]cc(c45)C[C@H]3N(CCC)C2)C(=O)N[C@H]2CSSC[C@@H](C(=O)N[C@H](C(N)=O)[C@@H](C)O)NC(=O)[C@H](CC)NC(=O)[C@H](CCCCN)NC(=O)[C@@H](Cc3c[nH]c4ccccc34)NC(=O)[C@H](Cc3ccc(O)cc3)NC2=O)C[C@@H]2c3cccc4[nH]cc(c34)C[C@H]21 [TBR-760 acetate] , report its measured Purity, T = 2 wk.
89.7

* * *

experiment: Solid state (thermolytic) stability of TBR-760 salt forms, open container, UPLC peak purity and appearance; type: physicochemical; conditions: 25° C. at 60% RH, open container, 2 wk
Where a name gives a salt, the structure may show the parent alone.
parameter: Appearance, T = 2 wk

1) CCCN1C[C@H](CSCC(=O)NCCCC[C@@H](NC(=O)CSC[C@@H]2C[C@@H]3c4cccc5[nH]cc(c45)C[C@H]3N(CCC)C2)C(=O)N[C@H]2CSSC[C@@H](C(=O)N[C@H](C(N)=O)[C@@H](C)O)NC(=O)[C@H](CC)NC(=O)[C@H](CCCCN)NC(=O)[C@@H](Cc3c[nH]c4ccccc34)NC(=O)[C@H](Cc3ccc(O)cc3)NC2=O)C[C@@H]2c3cccc4[nH]cc(c34)C[C@H]21 [TBR-760 acetate]    White
2) CCCN1C[C@H](CSCC(=O)NCCCC[C@@H](NC(=O)CSC[C@@H]2C[C@@H]3c4cccc5[nH]cc(c45)C[C@H]3N(CCC)C2)C(=O)N[C@H]2CSSC[C@@H](C(=O)N[C@H](C(N)=O)[C@@H](C)O)NC(=O)[C@H](CC)NC(=O)[C@H](CCCCN)NC(=O)[C@@H](Cc3c[nH]c4ccccc34)NC(=O)[C@H](Cc3ccc(O)cc3)NC2=O)C[C@@H]2c3cccc4[nH]cc(c34)C[C@H]21 [TBR-760 mesylate]    White
3) CCCN1C[C@H](CSCC(=O)NCCCC[C@@H](NC(=O)CSC[C@@H]2C[C@@H]3c4cccc5[nH]cc(c45)C[C@H]3N(CCC)C2)C(=O)N[C@H]2CSSC[C@@H](C(=O)N[C@H](C(N)=O)[C@@H](C)O)NC(=O)[C@H](CC)NC(=O)[C@H](CCCCN)NC(=O)[C@@H](Cc3c[nH]c4ccccc34)NC(=O)[C@H](Cc3ccc(O)cc3)NC2=O)C[C@@H]2c3cccc4[nH]cc(c34)C[C@H]21 [TBR-760 tosylate]    White
4) CCCN1C[C@H](CSCC(=O)NCCCC[C@@H](NC(=O)CSC[C@@H]2C[C@@H]3c4cccc5[nH]cc(c45)C[C@H]3N(CCC)C2)C(=O)N[C@H]2CSSC[C@@H](C(=O)N[C@H](C(N)=O)[C@@H](C)O)NC(=O)[C@H](CC)NC(=O)[C@H](CCCCN)NC(=O)[C@@H](Cc3c[nH]c4ccccc34)NC(=O)[C@H](Cc3ccc(O)cc3)NC2=O)C[C@@H]2c3cccc4[nH]cc(c34)C[C@H]21 [TBR-760 sulfate]    White

Shift focus to the following entry.
Need Appearance, T = 2 wk, item CCCN1C[C@H](CSCC(=O)NCCCC[C@@H](NC(=O)CSC[C@@H]2C[C@@H]3c4cccc5[nH]cc(c45)C[C@H]3N(CCC)C2)C(=O)N[C@H]2CSSC[C@@H](C(=O)N[C@H](C(N)=O)[C@@H](C)O)NC(=O)[C@H](CC)NC(=O)[C@H](CCCCN)NC(=O)[C@@H](Cc3c[nH]c4ccccc34)NC(=O)[C@H](Cc3ccc(O)cc3)NC2=O)C[C@@H]2c3cccc4[nH]cc(c34)C[C@H]21 [TBR-760 chloride, hydrochloride salt]
White
